B1: ZNF232 (parent)
chain: GKAYGWCSELIRHRRVHARKEPSH

Variants of: B1
Experiment: protein stability index of a GFP-peptide fusion (GPS, HEK-293T) (PSI 1-6); higher = more stable;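 further: lentivirally expressed fusions sorted by FACS into six bins by GFP to DsRed ratio, PSI derived from sequencing read proportions per bin multiplied by bin number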
Settings: c terminus: a fixed tail appended
Would you please tag the item 1.0 when its protein stability index is 3 or above, and 0.0 when it is below?

Mutant designation: K2T
Classification: 1.0
--
Mutant designation: A3K
Classification: 1.0

Exercise: Please tell me: is the variant `S8D` at or over 3 in terms of protein stability index?
Key: 1.0

Exercise: Please tell me: is the variant `R12K` at or over 3 in terms of protein stability index?
Key: 1.0

Exercise: Please tell me: is the variant `R15P` at or over 3 in terms of protein stability index?
Key: 1.0
